Target: UniProt P0A817
Sequence (P0A817 whole entry): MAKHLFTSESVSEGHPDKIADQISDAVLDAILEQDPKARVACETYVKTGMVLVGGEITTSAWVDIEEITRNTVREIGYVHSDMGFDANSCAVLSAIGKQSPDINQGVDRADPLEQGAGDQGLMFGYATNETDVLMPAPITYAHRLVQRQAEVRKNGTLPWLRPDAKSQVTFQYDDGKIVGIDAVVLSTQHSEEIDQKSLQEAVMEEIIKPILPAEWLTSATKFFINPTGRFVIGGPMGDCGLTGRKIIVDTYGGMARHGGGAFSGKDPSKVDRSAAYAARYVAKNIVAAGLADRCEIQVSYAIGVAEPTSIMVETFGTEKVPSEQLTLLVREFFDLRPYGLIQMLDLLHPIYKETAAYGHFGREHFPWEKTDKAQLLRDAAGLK
Experiment: MAT assay, turnover of S/Se-Met analogs to S(Se)AM analogs (RP-HPLC end point)
Format: biochemical
Details: 2 mM Met analog, 1 mM ATP, 5 μM MAT, pH 8, 4 h, 37° C.; average of two assays
# Percentage Turn-over eMAT per record follows
testReadout: Percentage Turn-over eMAT (%)

1) C#CCCSCC[C@H](N)C(=O)O: 0
2) C=CCSCC[C@H](N)C(=O)O: 2
3) C/C=C/CSCC[C@H](N)C(=O)O: 2
4) [N-]=[N+]=NCCCSCC[C@H](N)C(=O)O: 0
5) CCSCC[C@H](N)C(=O)O: 8
6) [N-]=[N+]=NC/C=C/CSCC[C@H](N)C(=O)O: 0
7) C#CCSCC[C@H](N)C(=O)O: 2
8) CC(C)CCSCC[C@H](N)C(=O)O: 0
9) CC(C)=CCSCC[C@H](N)C(=O)O: 3
10) CCCCSCC[C@H](N)C(=O)O: 0
11) C=C(C)CSCC[C@H](N)C(=O)O: 0
